Hey, just so you know, these numbers are from PubChem BioAssay.

# ASSAY_REMARKS: human hepatoma cell viability loss – ATP luminescence, cytotoxicity control for P. falciparum antimalarial project, primary screen (AID 2303);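 note: 0% = DMSO wells and 100% = digitonin-killed cells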
# TEST_PARAMETERS: HepG2 viability, 24-48 h, at 10 µM, stronger effect = higher value
The reader will find reported inhibition values listed item by item below.
METRIC: inhibition (%)

In [3]: df
Out[3]:
                                   compound      metric  experimental_value
0  O=S(=O)(c1cccc(C(F)(F)F)c1)N1CCC(CO)(Cc2cccc(C(F)(F)F)c2)CC1  inhibition                   3
1  O=C(Nc1ccccc1)c1ccc(N2CCC(COc3cccc(C(F)(F)F)c3)CC2)nc1  inhibition                  11
2  COc1ccc2cc(-c3nc(-c4c(Cl)cccc4Cl)[nH]c3-c3ccnc(NCCCN4CCCCC4C)c3)ccc2c1 (centres undefined)  inhibition                  19
3  Cc1cc(C(=O)NCc2ccc(-c3c(C)noc3C)cc2)n(-c2ccccc2)n1  inhibition                   4
4  Cn1ncc2c3c(CCN4CCC(NCc5cc6c(cn5)OCC6)CC4)c(Cl)cnc3ccc21  inhibition                   4
5  CC(C)c1ccc(NC(=O)c2ccc(C(=O)NC3CCN(CC4CCCCC4)CC3)cc2)cc1  inhibition                  34
6  CN(CCCc1c[nH]c2ccccc12)CCC1CCC(NC(=O)/C=C/c2ccc(Cl)c(Cl)c2)CC1 (centres undefined)  inhibition                  38
7  Cn1c2c(c3ccccc31)CN(CCC1(c3ccc(Cl)c(Cl)c3)CN(C(=O)Cc3ccccc3)CCO1)CC2 (centres undefined)  inhibition                  22
8   CN(C)CCNc1cc(-c2ccc3ccccc3c2)nc2ccccc12  inhibition                  24

* * *

The reader will find reported inhibition values listed item by item below.
# TARGET_OR_TEST_SYSTEM: L-lactate dehydrogenase (Plasmodium falciparum (isolate CDC / Honduras))
# ASSAY_REMARKS: PfLDH activity inhibition – cell lysate, 3D7 strain, counter-screen for P. falciparum growth inhibition project (AID 2304);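 note: 0% = vehicle and 100% = reference inhibitor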
# TEST_PARAMETERS: P. falciparum 3D7 crude extract, LDH APAD/NBT absorbance; at 2 µM; stronger effect = higher value
METRIC: inhibition (%)

                                    compound      metric  experimental_value
 0  Cc1cc(NC(=O)Nc2ccc(N(C)C)cc2)c2cc(Cl)ccc2n1  inhibition                   3
 1  COc1nc2c(CCN3CC[C@H](NCc4cc(C#N)c5c(c4)CCO5)[C@H](O)C3)ccnc2cc1F  inhibition                  -9
 2  COc1cc(C=NNc2cc(C)nc3c(OC)cccc23)cc(OC)c1OC  inhibition                   0
 3  CC(C)Cn1cc(C2CCN(CCN3CCC(CNC(=O)c4ccc(-c5ccc(C(F)(F)F)cc5)cc4)CC3)CC2)c2ccccc21  inhibition                   0
 4  O=[N+]([O-])c1ccc2nc(Nc3cccc(C(F)(F)F)c3)c(Nc3cccc(C(F)(F)F)c3)nc2c1  inhibition                  -4
 5  COc1ccc(O)c(C(=O)c2cc(C(=O)NC3CCCCC3)c(=O)n(C3CCCCC3)c2)c1  inhibition                   3
 6  CN(C)c1ccc(CN2CCC(NC(=O)c3ccc(-c4cccc(C(F)(F)F)c4)s3)CC2)cc1  inhibition                  -4
 7  O=C(Nc1ccc(F)cc1)c1cnc(N2CCN(c3ccncc3)CC2)c(Cl)c1  inhibition                  -3
 8  Cn1nccc1C(=O)NCCNCc1cccc(-c2cccc(-c3nc4ccc(F)cc4[nH]3)c2)c1  inhibition                   0
 9  CCc1cn(C)c2c(N3CCCC3=O)cc(C(=O)N[C@@H](Cc3ccccc3)[C@H](O)CNC3CCCCC3)cc12  inhibition                  -1
10  CN(C)CCN(C)Cc1ccc(-c2ccc(NC(=O)c3cccc(C#N)c3)cc2)cc1  inhibition                   2
11  NCCc1cccc(-c2cnc3[nH]cc(-c4ccc(C(=O)O)cc4)c3c2)c1  inhibition                  -2
12  O=C(N[C@H](Cc1ccc(Cl)cc1)C(=O)N1CCN(c2ccnc3cc(Cl)ccc23)CC1)[C@H]1Cc2ccccc2CN1  inhibition                   5
13  O=C(Nc1cccc(-c2ccc(-c3nc4ccc(F)cc4[nH]3)cc2)c1)c1csnn1  inhibition                   0
14  Nc1ccnc(N2CCC(CCOc3ccnc4cc(Cl)ccc34)CC2)c1  inhibition                   4
15  CN(C)CC1c2[nH]c3ccccc3c2CCN1C(=O)Nc1ccc(Cl)c(Cl)c1 (centres undefined)  inhibition                  -6
16  N#Cc1ccc(-c2ccc(C(=O)NCCCCN3CCC(c4cc(Br)c5c(c4OCC(N)=O)CCCC5)CC3)cc2)cc1  inhibition                   6
17  Cc1cccc2[nH]c(-c3cccc(-c4ccc(NC(=O)C5CCN(C)CC5)cc4)c3)nc12  inhibition                   3
18  CCCC(CC)n1ccc2c3c(N)nc(N)nc3ccc21 (centres undefined)  inhibition                   0
